# credit: paper PMC6001238

tested on: S. aureus VRSA; assay: MIC, broth microdilution, vancomycin-resistant S. aureus (VRSA); format: cell-based, Staphylococcus aureus; conditions: VRSA; ratio of MIC of vancomycin and MIC of analogue
readout.label: MIC-fold improvement vs. vancomycin
Could you respond with only the numeric value?

molecule	MIC-fold improvement vs. vancomycin
CN[C@H](CC(C)C)C(=O)N[C@H]1C(=O)N[C@@H](CC(N)=O)C(=O)N[C@H]2C(=O)N[C@H]3C(=O)N[C@H](C(=O)N[C@H](C(=O)NCCNC(=O)/C=C/c4ccc(Cl)cc4)c4cc(O)cc(O)c4-c4cc3ccc4O)[C@H](O)c3ccc(c(Cl)c3)Oc3cc2cc(c3O[C@@H]2O[C@H](CO)[C@@H](O)[C@H](O)[C@H]2O[C@H]2C[C@](C)(N)[C@H](O)[C@H](C)O2)Oc2ccc(cc2Cl)[C@H]1O [Vanc-20]	32
CCCCCn1cc(-c2ccc(NC(=O)CNC(=O)C3NC(=O)C4NC(=O)C(NC(=O)C5NC(=O)C(CC(N)=O)NC(=O)C(NC(=O)C(CC(C)C)NC)C(O)c6ccc(c(Cl)c6)Oc6cc5cc(c6OC5OC(CO)C(O)C(O)C5OC5CC(C)(N)C(O)C(C)O5)Oc5ccc(cc5Cl)C4O)c4ccc(O)c(c4)-c4c(O)cc(O)cc43)cc2)nn1 (stereo not drawn) [Vanc-91]	256

Could you now consider this next molecule?
Reported MIC-fold improvement vs. vancomycin for CCCCCCCCCC(=O)N[C@@H](Cc1c[nH]c2ccccc12)C(=O)N[C@H](CC(N)=O)C(=O)N[C@@H](CC(=O)O)C(=O)N[C@@H]1C(=O)NCC(=O)N[C@@H](CCCN)C(=O)N[C@@H](CC(=O)O)C(=O)N[C@H](C)C(=O)N[C@@H](CC(=O)O)C(=O)NCC(=O)N[C@H](CO)C(=O)N[C@@H]([C@H](C)CC(=O)O)C(=O)N[C@@H](CC(=O)c2ccccc2N)C(=O)O[C@@H]1C [Daptomycin, reference compound] : what is it?
8

---

tested on: E. faecalis VRE 53; experiment: MIC, broth microdilution, vancomycin-resistant E. faecalis VRE 53 (VanA); format: cell-based, Enterococcus faecalis; conditions: Enterococcus faecalis VRE 53 (vancomycin-resistant); read-out: MIC
Below: a set of entries, each annotated with reported MIC.

molecule	MIC
CNC(CC(C)C)C(=O)NC1C(=O)NC(CC(N)=O)C(=O)NC2C(=O)NC3C(=O)NC(C(=O)NC(C(=O)NCCCNC(=O)c4ccc(-c5ccc(F)cc5)cc4)c4cc(O)cc(O)c4-c4cc3ccc4O)C(O)c3ccc(c(Cl)c3)Oc3cc2cc(c3OC2OC(CO)C(O)C(O)C2OC2CC(C)(N)C(O)C(C)O2)Oc2ccc(cc2Cl)C1O (stereo not drawn) [Vanc-34]	12.5 µM
CN[C@H](CC(C)C)C(=O)N[C@H]1C(=O)N[C@@H](CC(N)=O)C(=O)N[C@H]2C(=O)N[C@H]3C(=O)N[C@H](C(=O)N[C@H](C(=O)NCCNC(=O)/C=C/c4ccc(NS(=O)(=O)c5ccc(Cl)cc5Cl)cc4)c4cc(O)cc(O)c4-c4cc3ccc4O)[C@H](O)c3ccc(c(Cl)c3)Oc3cc2cc(c3O[C@@H]2O[C@H](CO)[C@@H](O)[C@H](O)[C@H]2O[C@H]2C[C@](C)(N)[C@H](O)[C@H](C)O2)Oc2ccc(cc2Cl)[C@H]1O [Vanc-64]	12.5 µM
CN[C@H](CC(C)C)C(=O)N[C@H]1C(=O)N[C@@H](CC(N)=O)C(=O)N[C@H]2C(=O)N[C@H]3C(=O)N[C@H](C(=O)N[C@H](C(=O)NCC(=O)Nc4ccc(N5CCOCC5)cc4)c4cc(O)cc(O)c4-c4cc3ccc4O)[C@H](O)c3ccc(c(Cl)c3)Oc3cc2cc(c3O[C@@H]2O[C@H](CO)[C@@H](O)[C@H](O)[C@H]2O[C@H]2C[C@](C)(N)[C@H](O)[C@H](C)O2)Oc2ccc(cc2Cl)[C@H]1O [Vanc-8]	12.5 µM

Reported MIC for CNC(CC(C)C)C(=O)NC1C(=O)NC(CC(N)=O)C(=O)NC2C(=O)NC3C(=O)NC(C(=O)NC(C(=O)NCCCNC(=O)c4ccc5ccccc5n4)c4cc(O)cc(O)c4-c4cc3ccc4O)C(O)c3ccc(c(Cl)c3)Oc3cc2cc(c3OC2OC(CO)C(O)C(O)C2OC2CC(C)(N)C(O)C(C)O2)Oc2ccc(cc2Cl)C1O (stereo not drawn) [Vanc-27] : what is it?
25 µM

Reported MIC for CNC(CC(C)C)C(=O)NC1C(=O)NC(CC(N)=O)C(=O)NC2C(=O)NC3C(=O)NC(C(=O)NC(C(=O)NCC(=O)Nc4ccc(C(=O)c5ccccc5)cc4)c4cc(O)cc(O)c4-c4cc3ccc4O)C(O)c3ccc(c(Cl)c3)Oc3cc2cc(c3OC2OC(CO)C(O)C(O)C2OC2CC(C)(N)C(O)C(C)O2)Oc2ccc(cc2Cl)C1O (stereo not drawn) [Vanc-88] : what is it?
12.5 µM

Reported MIC for CN[C@H](CC(C)C)C(=O)N[C@H]1C(=O)N[C@@H](CC(N)=O)C(=O)N[C@H]2C(=O)N[C@H]3C(=O)N[C@H](C(=O)N[C@H](C(=O)NCC(=O)Nc4cc(C)ccc4O)c4cc(O)cc(O)c4-c4cc3ccc4O)[C@H](O)c3ccc(c(Cl)c3)Oc3cc2cc(c3O[C@@H]2O[C@H](CO)[C@@H](O)[C@H](O)[C@H]2O[C@H]2C[C@](C)(N)[C@H](O)[C@H](C)O2)Oc2ccc(cc2Cl)[C@H]1O [Vanc-18] : what is it?
25 µM

---

Below: a set of entries, each annotated with reported MIC-fold improvement vs. vancomycin.
test system: E. faecalis VRE 53; test: MIC, broth microdilution, vancomycin-resistant E. faecalis VRE 53 (VanA); type: cell-based, Enterococcus faecalis; conditions: VRE 53; ratio of MIC of vancomycin and MIC of analogue
Could you respond with only the numeric value?

Reported MIC-fold improvement vs. vancomycin for CN[C@H](CC(C)C)C(=O)N[C@H]1C(=O)N[C@@H](CC(N)=O)C(=O)N[C@H]2C(=O)N[C@H]3C(=O)N[C@H](C(=O)N[C@H](C(=O)NCC(=O)Nc4ccc(C)cc4)c4cc(O)cc(O)c4-c4cc3ccc4O)[C@H](O)c3ccc(c(Cl)c3)Oc3cc2cc(c3O[C@@H]2O[C@H](CO)[C@@H](O)[C@H](O)[C@H]2O[C@H]2C[C@](C)(N)[C@H](O)[C@H](C)O2)Oc2ccc(cc2Cl)[C@H]1O [Vanc-4] : what is it?
64

---

Below: a set of entries, each annotated with reported MIC.
test system: MRSA KS2; test: MIC, broth microdilution, MRSA KS2; format: cell-based, Staphylococcus aureus; conditions: Staphylococcus aureus MRSA KS2; read-out: MIC
// units = µM; emit number, no label

molecule	unit.abbrev	MIC
CNC(CC(C)C)C(=O)NC1C(=O)NC(CC(N)=O)C(=O)NC2C(=O)NC3C(=O)NC(C(=O)NC(C(=O)NCCCNC(=O)c4cc5ccccc5[nH]4)c4cc(O)cc(O)c4-c4cc3ccc4O)C(O)c3ccc(c(Cl)c3)Oc3cc2cc(c3OC2OC(CO)C(O)C(O)C2OC2CC(C)(N)C(O)C(C)O2)Oc2ccc(cc2Cl)C1O (stereo not drawn)	µM	0.20
C#CCCC(=O)NCCCNC(=O)C1NC(=O)C2NC(=O)C(NC(=O)C3NC(=O)C(CC(N)=O)NC(=O)C(NC(=O)C(CC(C)C)NC)C(O)c4ccc(c(Cl)c4)Oc4cc3cc(c4OC3OC(CO)C(O)C(O)C3OC3CC(C)(N)C(O)C(C)O3)Oc3ccc(cc3Cl)C2O)c2ccc(O)c(c2)-c2c(O)cc(O)cc21 (stereo not drawn)	µM	0.78

Reported MIC for "CN[C@H](CC(C)C)C(=O)N[C@H]1C(=O)N[C@@H](CC(N)=O)C(=O)N[C@H]2C(=O)N[C@H]3C(=O)N[C@H](C(=O)N[C@H](C(=O)NCC(=O)Nc4ccc(N5CCOCC5)cc4)c4cc(O)cc(O)c4-c4cc3ccc4O)[C@H](O)c3ccc(c(Cl)c3)Oc3cc2cc(c3O[C@@H]2O[C@H](CO)[C@@H](O)[C@H](O)[C@H]2O[C@H]2C[C@](C)(N)[C@H](O)[C@H](C)O2)Oc2ccc(cc2Cl)[C@H]1O" : what is it?
0.78

Reported MIC for CCCCOc1ccc(C(=O)NCCCNC(=O)C2NC(=O)C3NC(=O)C(NC(=O)C4NC(=O)C(CC(N)=O)NC(=O)C(NC(=O)C(CC(C)C)NC)C(O)c5ccc(c(Cl)c5)Oc5cc4cc(c5OC4OC(CO)C(O)C(O)C4OC4CC(C)(N)C(O)C(C)O4)Oc4ccc(cc4Cl)C3O)c3ccc(O)c(c3)-c3c(O)cc(O)cc32)cc1 (stereo not drawn) : what is it?
0.20

Reported MIC for "C#Cc1ccc(/C=C/C(=O)NCCNC(=O)[C@H]2NC(=O)[C@H]3NC(=O)[C@H](NC(=O)[C@@H]4NC(=O)[C@H](CC(N)=O)NC(=O)[C@H](NC(=O)[C@@H](CC(C)C)NC)[C@H](O)c5ccc(c(Cl)c5)Oc5cc4cc(c5O[C@@H]4O[C@H](CO)[C@@H](O)[C@H](O)[C@H]4O[C@H]4C[C@](C)(N)[C@H](O)[C@H](C)O4)Oc4ccc(cc4Cl)[C@H]3O)c3ccc(O)c(c3)-c3c(O)cc(O)cc32)cc1" : what is it?
1.56

Reported MIC for CCCCCc1ccc(C(=O)NCCCNC(=O)C2NC(=O)C3NC(=O)C(NC(=O)C4NC(=O)C(CC(N)=O)NC(=O)C(NC(=O)C(CC(C)C)NC)C(O)c5ccc(c(Cl)c5)Oc5cc4cc(c5OC4OC(CO)C(O)C(O)C4OC4CC(C)(N)C(O)C(C)O4)Oc4ccc(cc4Cl)C3O)c3ccc(O)c(c3)-c3c(O)cc(O)cc32)cc1 (stereo not drawn) : what is it?
0.20
